Test system: E. coli CysH (JM81A complemented with M. smegmatis CysH)
Experiment: microbe, parasite or virus in culture
Type: cell-based
Settings: Escherichia coli; E. coli CysH strain; 25 μg/mL of compound; read-out: percent inhibition of growth

- structure: "CCN(CC)CC[n+]1ccc2c(C)c3[nH]c4ccccc4c3c(C)c2c1"
  inhibition at 25 µg/mL / %: 97
- structure: "Nc1ccc(S(=O)(=O)Nc2cnc3ccccc3n2)cc1"
  inhibition at 25 µg/mL / %: 29
- structure: "CC(=N/Nc1nc2ccccc2s1)/N=N/c1cccc(O)c1"
  inhibition at 25 µg/mL / %: 0
- structure: "[N-]=[N+]=Nc1ccc(S(=O)(=O)Nc2ncccn2)cc1"
  inhibition at 25 µg/mL / %: 0
- structure: "O=C1Oc2ccccc2C(=O)/C1=C/Nc1ncc(-c2ccc(O)c(O)c2)s1"
  inhibition at 25 µg/mL / %: 90
- structure: "O=C(O)c1ccccc1N[C@H](c1ccccc1)c1ccc2cccnc2c1O"
  inhibition at 25 µg/mL / %: 25
